- Test system: U251 CNS
- run.description: NCI-60 one-dose screen, 48 h (100 = growth as untreated, 0 = no growth, -100 = all killed)
- condition.description: 10 µM unless noted
This is part of a sample that, as a whole, favours compounds with a hit. Of some 83,000 tested, about 20% had one in any assay.
# growth >= 50% gives 1, anything below gives -1

compound	discrete.label
O=C(N=Nc1c(O)[nH]c2ccc(Br)cc12)c1ccc2nc(-c3ccc(Cl)cc3)[nH]c2c1	-1
Cn1cc(-c2cc(N)n3nc(-c4c[nH]c5ccccc45)cc3n2)c2cc(Br)ccc21	-1
COc1ccc(NC(=O)Nc2nc3ccc([N+](=O)[O-])cc3s2)cc1	-1
Cn1cc(-c2cc3nc(-c4cn(C)c5ncccc45)cc(N)n3n2)c2cc(F)ccc21	-1
Cc1ccc(C(=O)C[n+]2cccc3c4ccccc4ccc32)cc1	-1
Cn1cc(-c2cc(N)n3nc(-c4c[nH]c5ccccc45)cc3n2)c2ccccc21	-1
Cc1cccc(NCC(=O)N2CCN(c3ncnc4c3cnn4-c3ccccc3)CC2)c1	1
CNc1nc2ccccc2n2c(-c3ccc(O)c(O)c3)cnc12	-1
Cn1cc(-c2cc(N)n3nc(-c4c[nH]c5ccc(F)cc45)cc3n2)c2cc(Br)cnc21	-1
COc1ccc2c(c1)C(Sc1ccc(Br)cc1)c1c(nc(N)c(C#N)c1N)O2 (stereo not given)	1
COc1ccc2c(c1)C(Sc1ccc(F)cc1)c1c(nc(N)c(C#N)c1N)O2 (stereo not given)	1
COc1c(B(O)O)cc(F)cc1-c1nc2ccc3[nH]ncc3c2c2c1COCC2	-1
COc1ccc(NC(=O)Cn2c(/C=C/c3cccc(OC)c3)nc3ccccc3c2=O)cc1	-1
COc1ccc2[nH]c(O)c(N=Nc3nc(-c4ccccc4)cs3)c2c1	-1
C=CC(=O)N1CCN(c2ccc3nc4c(nc3c2C(F)(F)F)C(=O)c2ncccc2C4=O)CC1	-1
Cc1nc(N)ncc1-c1ccc2ncnc(N3CCc4cc(F)c(Cl)cc43)c2c1	1
COc1ccc(Nc2nnc(-c3c[nH]c4ccccc34)o2)cc1	1
CC(C)(C)OC(=O)N1C/C(=C\c2ccc(F)cc2)C(=O)/C(=C/c2ccc(F)cc2)C1	-1
COc1cc(CNC(=O)C[C@H](C)CCC=C(C)C)ccc1OCc1cn(-c2ccccc2Cl)nn1	1
Nc1nc(-c2ccccc2)c(N=Nc2ccc(Cl)cc2Cl)s1	-1
O=C1Nc2ccccc2/C1=C\c1ccc(OCC(=O)c2ccc(Br)cc2)cc1	1
COc1ccc2c(c1)C(=O)N(C)C2C1c2c(cc3c(c2OC)OCO3)CCN1C (stereo not given)	-1
Cc1nn(-c2ccccc2)c2ncn(CC(=O)N/N=C/c3ccccc3O)c(=O)c12	-1
O=C(NC(=S)N1CCN(c2ncnc3c2cnn3-c2ccccc2)CC1)c1ccc(F)cc1	1
Cc1cc(Cl)ccc1NC(=O)Nc1ccc(-c2ccc3c(c2)NC(=O)/C3=C\c2ccc[nH]2)cc1	1
COc1ccc(OC)c(Cn2cc(C#N)c(N)c2C(=O)c2ccc(Br)cc2)c1	-1
FC(F)(F)c1cc2c(Cl)ncnc2n1CCN1CCCCC1	1
Cn1cc(-c2cc(N)n3nc(-c4c[nH]c5ccc(Cl)cc45)cc3n2)c2cccnc21	-1
Cc1ccc(C2CC(c3ccc(NC(=S)Nc4ccccc4)cc3)=NN2c2ccc(S(N)(=O)=O)cc2)cc1 (stereo not given)	-1
CS(=O)(=O)c1ccc(-n2nc(C(=O)NCc3ccccc3)cc2-c2ccc(Cl)cc2)cc1	1
N/C(=N\c1nc2ccccc2s1)NC(=O)Nc1ccccc1[N+](=O)[O-]	-1
O=C1/C(=C/C=C/c2ccco2)SC(=S)N1CC(=S)C1C=CS(=O)(=O)C1 (stereo not given)	1
Cc1ccc(C2CC(c3ccc(NC(=O)Nc4ccccc4)cc3)=NN2c2ccc(S(N)(=O)=O)cc2)cc1 (stereo not given)	-1
CC1CCc2c(sc3nc(SCC(=O)c4cccc([N+](=O)[O-])c4)n(-c4ccccc4)c(=O)c23)C1 (stereo not given)	-1
O=C1/C(=C/c2cnc(-c3ccccc3)s2)SC(=S)N1Cc1ccc2c(c1)OCO2	-1
Cc1nc2sccn2c1-c1nnc(SCc2ccccc2)o1	1
Cc1oc(-c2ccccc2)nc1CN[C@@H]1C[C@@H]2C[C@H]([C@H]1C)C2(C)C	-1
Cc1ccc2nc(NC(=O)Nc3cccc(Cl)c3)sc2c1	1
Nc1nn2c(-c3cc4ccccc4oc3=O)ccnc2c1N=Nc1ccccc1	-1
C#CCN(C)CCCOc1ccc(N(C)C(=O)c2cc(C(C)C)c(O)cc2O)cc1Cl	-1
